The reported measurements were obtained from PubChem BioAssay AID2060327.

System: PC-3 multi-cell spheroids, viability
Assay: Anticancer human tumor PC-3 cell line growth inhibition [IpAb]
Settings: second compound 1 µM; first compound 0.001 µM; hits give low values
Description: Combinatorial screen of targeted agents with ipatasertib and abemaciclib in multi-cell type tumor spheroids […] Compounds. […] If the clinical Cmax for an agent had not been determined, the highest concentration tested was 10 microM. NCI60 Cell Culture. […] The optimal seeding densities for each of the cell lines at each time point assessed were determined prior to performing the concentration response studies. […]
Provide the recorded viability, T/C for the entries that follow.
Dear colleague, please return just the value in %, with no unit written.

Task: Recorded viability, T/C of CC(C)n1nc(-c2ccc3oc(N)nc3c2)c2c(N)ncnc21 + CCN1CCN(Cc2ccc(Nc3ncc(F)c(-c4cc(F)c5nc(C)n(C(C)C)c5c4)n3)nc2)CC1 , please.
Output: 54.3

Task: Recorded viability, T/C of Cn1ncnc1[C@H]1c2n[nH]c(=O)c3cc(F)cc(c23)N[C@@H]1c1ccc(F)cc1 + CC(C)NCC(C(=O)N1CCN(c2ncnc3c2C(C)CC3O)CC1)c1ccc(Cl)cc1 , please.
Output: 23.3

Task: Recorded viability, T/C of CC(C)n1nc(-c2ccc3oc(N)nc3c2)c2c(N)ncnc21 + CC(C)NCC(C(=O)N1CCN(c2ncnc3c2C(C)CC3O)CC1)c1ccc(Cl)cc1 , please.
Output: 14.8

Task: Recorded viability, T/C of Cn1ncnc1[C@H]1c2n[nH]c(=O)c3cc(F)cc(c23)N[C@@H]1c1ccc(F)cc1 + CCN1CCN(Cc2ccc(Nc3ncc(F)c(-c4cc(F)c5nc(C)n(C(C)C)c5c4)n3)nc2)CC1 , please.
Output: 48.8

* * *

tested on: PC-3 multi-cell spheroids, viability; test: Anticancer human tumor PC-3 cell line growth inhibition [IpAb]; conditions: second compound 0.316 µM; first compound 0.0316 µM; hits give low values
observable: viability, T/C (%)
Dear colleague, please return just the value in %, with no unit written.

Task: Recorded viability, T/C of CCCS(=O)(=O)Nc1ccc(F)c(C(=O)c2c[nH]c3ncc(-c4ccc(Cl)cc4)cc23)c1F + CCN1CCN(Cc2ccc(Nc3ncc(F)c(-c4cc(F)c5nc(C)n(C(C)C)c5c4)n3)nc2)CC1 , please.
Output: 64.7

Task: Recorded viability, T/C of C=CCn1c(=O)c2cnc(Nc3ccc(N4CCN(C)CC4)cc3)nc2n1-c1cccc(C(C)(C)O)n1 + CCN1CCN(Cc2ccc(Nc3ncc(F)c(-c4cc(F)c5nc(C)n(C(C)C)c5c4)n3)nc2)CC1 , please.
Output: 59.6

Task: Recorded viability, T/C of Cn1ncc(Cl)c1-c1cc(C(=O)NC(CN)Cc2cccc(F)c2)sc1Cl (centres undefined) + CCN1CCN(Cc2ccc(Nc3ncc(F)c(-c4cc(F)c5nc(C)n(C(C)C)c5c4)n3)nc2)CC1 , please.
Output: 56.5

Task: Recorded viability, T/C of COc1c(OCCCN2CCOCC2)ccc2c3n(c(=NC(=O)c4cnc(N)nc4)nc12)CCN3 + CCN1CCN(Cc2ccc(Nc3ncc(F)c(-c4cc(F)c5nc(C)n(C(C)C)c5c4)n3)nc2)CC1 , please.
Output: 111

* * *

test system: PC-3 multi-cell spheroids, viability; assay: Anticancer human tumor PC-3 cell line growth inhibition [IpAb]; conditions: second compound 10 µM; first compound 1 µM; active means viability on the fitted dose curve at most 10% of control; inactive means the rest;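 also: spheroids exposed to compounds for 7 days before readout; 100% = DMSO vehicle control wells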
Select the matching outcome among active, inactive

Task: What did the test return for COc1c(OCCCN2CCOCC2)ccc2c3n(c(=NC(=O)c4cnc(N)nc4)nc12)CCN3 + CC(C)NCC(C(=O)N1CCN(c2ncnc3c2C(C)CC3O)CC1)c1ccc(Cl)cc1 ?
Output: active

Task: What did the test return for CCCS(=O)(=O)Nc1ccc(F)c(C(=O)c2c[nH]c3ncc(-c4ccc(Cl)cc4)cc23)c1F + CC(C)NCC(C(=O)N1CCN(c2ncnc3c2C(C)CC3O)CC1)c1ccc(Cl)cc1 ?
Output: inactive

Task: What did the test return for Cc1nc(NC(=O)N2CCCC2C(N)=O)sc1-c1ccnc(C(C)(C)C(F)(F)F)c1 (stereo unspecified) + CC(C)NCC(C(=O)N1CCN(c2ncnc3c2C(C)CC3O)CC1)c1ccc(Cl)cc1 ?
Output: active

Task: What did the test return for Cn1ncc(Cl)c1-c1cc(C(=O)NC(CN)Cc2cccc(F)c2)sc1Cl (stereo unspecified) + CC(C)NCC(C(=O)N1CCN(c2ncnc3c2C(C)CC3O)CC1)c1ccc(Cl)cc1 ?
Output: inactive

Task: What did the test return for Cn1nccc1Nc1nccc(-c2ccn(C(CO)c3ccc(Cl)c(F)c3)c(=O)c2)n1 (stereo unspecified) + CC(C)NCC(C(=O)N1CCN(c2ncnc3c2C(C)CC3O)CC1)c1ccc(Cl)cc1 ?
Output: inactive

Task: What did the test return for C=CCn1c(=O)c2cnc(Nc3ccc(N4CCN(C)CC4)cc3)nc2n1-c1cccc(C(C)(C)O)n1 + CC(C)NCC(C(=O)N1CCN(c2ncnc3c2C(C)CC3O)CC1)c1ccc(Cl)cc1 ?
Output: active

* * *

Provide the recorded viability, T/C for the entries that follow.
tested on: PC-3 multi-cell spheroids, viability; experiment: Anticancer human tumor PC-3 cell line growth inhibition [IpAb]; settings: second compound 1 µM; first compound 0.1 µM; hits give low values;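 also: spheroids exposed to compounds for 7 days before readout; 100% = DMSO vehicle control wells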
Dear colleague, please return just the value in %, with no unit written.

Task: Recorded viability, T/C of CC1(C)CCC(CN2CCN(c3ccc(C(=O)NS(=O)(=O)c4ccc(NCC5CCOCC5)c([N+](=O)[O-])c4)c(Oc4cnc5[nH]ccc5c4)c3)CC2)=C(c2ccc(Cl)cc2)C1 + CCN1CCN(Cc2ccc(Nc3ncc(F)c(-c4cc(F)c5nc(C)n(C(C)C)c5c4)n3)nc2)CC1 , please.
Output: 60.2

Task: Recorded viability, T/C of C=CC(=O)N1CCN(c2nc(=O)n(-c3c(C)ccnc3C(C)C)c3nc(-c4c(O)cccc4F)c(F)cc23)C(C)C1 (stereo not given) + CC(C)NCC(C(=O)N1CCN(c2ncnc3c2C(C)CC3O)CC1)c1ccc(Cl)cc1 , please.
Output: 27.1

Task: Recorded viability, T/C of CCCS(=O)(=O)Nc1ccc(F)c(C(=O)c2c[nH]c3ncc(-c4ccc(Cl)cc4)cc23)c1F + CC(C)NCC(C(=O)N1CCN(c2ncnc3c2C(C)CC3O)CC1)c1ccc(Cl)cc1 , please.
Output: 22.6

Task: Recorded viability, T/C of Cn1nccc1Nc1nccc(-c2ccn(C(CO)c3ccc(Cl)c(F)c3)c(=O)c2)n1 (stereo not given) + CC(C)NCC(C(=O)N1CCN(c2ncnc3c2C(C)CC3O)CC1)c1ccc(Cl)cc1 , please.
Output: 24.2

Task: Recorded viability, T/C of C=CC(=O)N1CCN(c2nc(=O)n(-c3c(C)ccnc3C(C)C)c3nc(-c4c(O)cccc4F)c(F)cc23)C(C)C1 (stereo not given) + CCN1CCN(Cc2ccc(Nc3ncc(F)c(-c4cc(F)c5nc(C)n(C(C)C)c5c4)n3)nc2)CC1 , please.
Output: 65.5

* * *

Provide the recorded viability, T/C for the entries that follow.
test system: PC-3 multi-cell spheroids, viability; experiment: Anticancer human tumor PC-3 cell line growth inhibition [IpAb]; settings: second compound 1 µM; first compound 0.3 µM; hits give low values;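 also: spheroids exposed to compounds for 7 days before readout; 100% = DMSO vehicle control wells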
Dear colleague, please return just the value in %, with no unit written.

Task: Recorded viability, T/C of CC(=O)c1c(C)c2cnc(Nc3ccc(N4CCNCC4)cn3)nc2n(C2CCCC2)c1=O + CCN1CCN(Cc2ccc(Nc3ncc(F)c(-c4cc(F)c5nc(C)n(C(C)C)c5c4)n3)nc2)CC1 , please.
Output: 55.1

Task: Recorded viability, T/C of Cn1cnc2c(F)c(Nc3ccc(Br)cc3Cl)c(C(=O)NOCCO)cc21 + CC(C)NCC(C(=O)N1CCN(c2ncnc3c2C(C)CC3O)CC1)c1ccc(Cl)cc1 , please.
Output: 20.8

Task: Recorded viability, T/C of CC(C)(C)c1cnc(CSc2cnc(NC(=O)C3CCNCC3)s2)o1 + CC(C)NCC(C(=O)N1CCN(c2ncnc3c2C(C)CC3O)CC1)c1ccc(Cl)cc1 , please.
Output: 3.39

* * *

Provide the recorded viability, T/C for the entries that follow.
test system: PC-3 multi-cell spheroids, viability; assay: Anticancer human tumor PC-3 cell line growth inhibition [IpAb]; conditions: second compound 10 µM; first compound 3.16 µM; hits give low values;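 also: spheroids exposed to compounds for 7 days before readout; 100% = DMSO vehicle control wells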

Task: Entry C=CCn1c(=O)c2cnc(Nc3ccc(N4CCN(C)CC4)cc3)nc2n1-c1cccc(C(C)(C)O)n1 + CC(C)NCC(C(=O)N1CCN(c2ncnc3c2C(C)CC3O)CC1)c1ccc(Cl)cc1 , system PC-3 multi-cell spheroids, viability: what viability, T/C was measured?
Output: 7.49%

Task: Entry Cn1ncc(Cl)c1-c1cc(C(=O)NC(CN)Cc2cccc(F)c2)sc1Cl (configuration not stated) + CC(C)NCC(C(=O)N1CCN(c2ncnc3c2C(C)CC3O)CC1)c1ccc(Cl)cc1 , system PC-3 multi-cell spheroids, viability: what viability, T/C was measured?
Output: 13.9%

Task: Entry CC1(C)CCC(CN2CCN(c3ccc(C(=O)NS(=O)(=O)c4ccc(NCC5CCOCC5)c([N+](=O)[O-])c4)c(Oc4cnc5[nH]ccc5c4)c3)CC2)=C(c2ccc(Cl)cc2)C1 + CC(C)NCC(C(=O)N1CCN(c2ncnc3c2C(C)CC3O)CC1)c1ccc(Cl)cc1 , system PC-3 multi-cell spheroids, viability: what viability, T/C was measured?
Output: 10.7%

Task: Entry Cc1nc(NC(=O)N2CCCC2C(N)=O)sc1-c1ccnc(C(C)(C)C(F)(F)F)c1 (configuration not stated) + CC(C)NCC(C(=O)N1CCN(c2ncnc3c2C(C)CC3O)CC1)c1ccc(Cl)cc1 , system PC-3 multi-cell spheroids, viability: what viability, T/C was measured?
Output: 7.87%

Task: Entry Cn1nccc1Nc1nccc(-c2ccn(C(CO)c3ccc(Cl)c(F)c3)c(=O)c2)n1 (configuration not stated) + CC(C)NCC(C(=O)N1CCN(c2ncnc3c2C(C)CC3O)CC1)c1ccc(Cl)cc1 , system PC-3 multi-cell spheroids, viability: what viability, T/C was measured?
Output: 17.4%

Task: Entry CCCS(=O)(=O)Nc1ccc(F)c(C(=O)c2c[nH]c3ncc(-c4ccc(Cl)cc4)cc23)c1F + CC(C)NCC(C(=O)N1CCN(c2ncnc3c2C(C)CC3O)CC1)c1ccc(Cl)cc1 , system PC-3 multi-cell spheroids, viability: what viability, T/C was measured?
Output: 12.6%

Task: Entry C=CC(=O)N1CCN(c2nc(=O)n(-c3c(C)ccnc3C(C)C)c3nc(-c4c(O)cccc4F)c(F)cc23)C(C)C1 (configuration not stated) + CC(C)NCC(C(=O)N1CCN(c2ncnc3c2C(C)CC3O)CC1)c1ccc(Cl)cc1 , system PC-3 multi-cell spheroids, viability: what viability, T/C was measured?
Output: 14.5%
